Ref: ChEMBL document CHEMBL1201862

System: ACHN
Experiment: NCI tumour cell line growth inhibition, 48 h
Calls of active or inactive are those of the source. Rule as the data show it: active = GI50 up to about 1.1 µM and inactive = higher.
Measured GI50 of individual entries
attributeMeasured: GI50

[[record]]
molecule = "COC1C=COC2(C)Oc3c(C)c(O)c4c(O)c(c(C5SCCS5)c(O)c4c3C2=O)NC(=O)C(C)=C/C=C\\C(C)C2OC(C)(C)OC(C2C)C(C)C(OC(C)=O)C1C (stereo not drawn)"
attributemeasured = "GI50"
valueobserved = "3.15 µM (inactive)"

[[record]]
molecule = "CC(C)NC(=O)OCc1c(COC(=O)NC(C)C)c(-c2ccc[n+](COC(=O)C3CC3)c2)n2c1CCC2"
attributemeasured = "GI50"
valueobserved = "20 µM (inactive)"

[[record]]
molecule = "C#CC(O)/C=C/C(O)CCCC(O)CC#CC(O)C#CC(O)CCCC(O)/C=C/CCCCCC(=O)CCCCCCCCCCCCCC(O)C(O)C#CC(=O)O (stereo not drawn)"
attributemeasured = "GI50"
valueobserved = "> 50 µM (inactive)"

